- ASSAY_PROCEDURE: Colorimetric MTT cytotoxicity assay
- Assay type: cell-based
- CONDITION_LABEL: human, SCC114 cells, SCC114, 0-100 μM, read-out: IC50 cytotoxicity / half-maximal inhibition of cell growth
VALUE_KIND: IC50 at 22 h (µM)
Quick note: give the figure in µM, leave out the unit.

query: Looking for the measured IC50 at 22 h of COC1=CC(=O)C[C@@H](C)[C@]12Oc1c(Cl)c(OC)cc(OC)c1C2=O [griseofulvin] , can you help?
result: 35
